Test system: Multidrug resistance-associated proteins (MRPs)
Test: In vivo microdialysis pharmacokinetics of LVFX with MRPs inhibitor MK571
Parameters: species or system rat
Settings: rat, CSF (lateral ventricle microdialysate, unbound), intravenous, with MK571 20 mg/kg i.p.; CSF; MK571 group, MK571 20 mg/kg i.p. + LVFX 50 mg/kg; mean ± SD, N=5
Method: On the day of surgery, rats were anesthetized using inhaled isoflurane via a facemask. The rats were placed in a stereotaxic frame (Gene&I), and the body temperature was maintained with a homoeothermic blanket set at 37°C. A midline incision was made to expose the skull. […]
measurement.name: Cmax (ng/mL)
The answer is to be given in ng/mL; state only the numeric part.

## Input Jot down Cmax (Multidrug resistance-associated proteins (MRPs)) of `C[C@H]1COc2c(N3CCN(C)CC3)c(F)cc3c(=O)c(C(=O)O)cn1c23` .
## Output 5460

---

System: Organic anion transporters (OATs)
Assay: In vivo microdialysis pharmacokinetics of LVFX with OATs inhibitor probenecid
Parameters: species or system rat
Settings: rat, brain ECF (hippocampal microdialysate, unbound), intravenous, with Probenecid 50 mg/kg i.p., 30 min before LVFX; brain ECF; PRO group, Probenecid 50 mg/kg i.p. + LVFX 50 mg/kg; mean ± SD, N=5
measurement.name: half-life

## Input Supply recorded half-life for `C[C@H]1COc2c(N3CCN(C)CC3)c(F)cc3c(=O)c(C(=O)O)cn1c23` here.
## Output 1.12 h

---

Assay: In vivo microdialysis pharmacokinetics of LVFX without transporter inhibitors
Parameters: species or system rat
Conditions: rat, brain ECF, iv, 50 mg/kg, brain ECF; Group 4: LVFX 50 mg/kg alone; mean ± SD, n=3; read-out: AUC0–180 (converted)
measurement.name: AUC(0-t)
Give the figure together with its unit, number first.

## Input Supply recorded AUC(0-t) for `C[C@H]1COc2c(N3CCN(C)CC3)c(F)cc3c(=O)c(C(=O)O)cn1c23` here.
## Output 3600 ng·h/mL

---

Tested on: P-glycoprotein (P-gp)
Experiment: In vivo microdialysis pharmacokinetics of LVFX with P-gp inhibitor Tariquidar
Design: species or system rat
Conditions: rat, CSF / blood (unbound, microdialysate), intravenous, with Tariquidar 8 mg/kg i.p., 30 min before LVFX; AUCu,CSF/AUCu,blood; TAR group, Tariquidar 8 mg/kg i.p. + LVFX 50 mg/kg; N=5; read-out: K p,uu,CSF
measurement.name: Kp
# answer = number (no unit)

## Input Supply recorded Kp for `C[C@H]1COc2c(N3CCN(C)CC3)c(F)cc3c(=O)c(C(=O)O)cn1c23` here.
## Output 0.37

---

Test: In vivo microdialysis pharmacokinetics of LVFX without transporter inhibitors
Parameters: species or system rat
Details: rat, CSF (lateral ventricle microdialysate), iv, 50 mg/kg, CSF; Group 2: 1.25% NaHCO3 solution + LVFX 50 mg/kg; mean ± SD, n=3; read-out: AUC0–180 (converted)
measurement.name: AUC(0-t)
Give the figure together with its unit, number first.

## Input Supply recorded AUC(0-t) for `C[C@H]1COc2c(N3CCN(C)CC3)c(F)cc3c(=O)c(C(=O)O)cn1c23` here.
## Output 4140 ng·h/mL

---

Assay: In vivo microdialysis pharmacokinetics of LVFX without transporter inhibitors
Parameters: species or system rat
Conditions: rat, blood (microdialysate, unbound), iv, 50 mg/kg, blood; Group 1: vehicle solution of Tariquidar/Ko143 + LVFX 50 mg/kg; mean ± SD, n=3
measurement.name: half-life (min)
The answer is to be given in min; state only the numeric part.

## Input Supply recorded half-life for `C[C@H]1COc2c(N3CCN(C)CC3)c(F)cc3c(=O)c(C(=O)O)cn1c23` here.
## Output 40.5

---

Assay: In vivo microdialysis pharmacokinetics of LVFX without transporter inhibitors
Parameters: species or system rat
Settings: rat, blood (microdialysate, unbound), iv, 50 mg/kg, pH 9, blood; Group 3: physiological saline alkalinized with NaOH (pH 9.0–9.2) + LVFX 50 mg/kg; mean ± SD, n=3; read-out: AUC0–180 (converted)
measurement.name: AUC(0-t) (ng·h/mL)
The answer is to be given in ng·h/mL; state only the numeric part.

## Input Supply recorded AUC(0-t) for C[C@H]1COc2c(N3CCN(C)CC3)c(F)cc3c(=O)c(C(=O)O)cn1c23 [LVFX, Levofloxacin] here.
## Output 9340

---

Target: Breast cancer resistance protein (BCRP) (Rattus norvegicus, UniProt Q80W57)
Construct: from tissue; host or cells: living rat (blood-brain barrier, choroid plexus)
Sequence (Q80W57 whole entry): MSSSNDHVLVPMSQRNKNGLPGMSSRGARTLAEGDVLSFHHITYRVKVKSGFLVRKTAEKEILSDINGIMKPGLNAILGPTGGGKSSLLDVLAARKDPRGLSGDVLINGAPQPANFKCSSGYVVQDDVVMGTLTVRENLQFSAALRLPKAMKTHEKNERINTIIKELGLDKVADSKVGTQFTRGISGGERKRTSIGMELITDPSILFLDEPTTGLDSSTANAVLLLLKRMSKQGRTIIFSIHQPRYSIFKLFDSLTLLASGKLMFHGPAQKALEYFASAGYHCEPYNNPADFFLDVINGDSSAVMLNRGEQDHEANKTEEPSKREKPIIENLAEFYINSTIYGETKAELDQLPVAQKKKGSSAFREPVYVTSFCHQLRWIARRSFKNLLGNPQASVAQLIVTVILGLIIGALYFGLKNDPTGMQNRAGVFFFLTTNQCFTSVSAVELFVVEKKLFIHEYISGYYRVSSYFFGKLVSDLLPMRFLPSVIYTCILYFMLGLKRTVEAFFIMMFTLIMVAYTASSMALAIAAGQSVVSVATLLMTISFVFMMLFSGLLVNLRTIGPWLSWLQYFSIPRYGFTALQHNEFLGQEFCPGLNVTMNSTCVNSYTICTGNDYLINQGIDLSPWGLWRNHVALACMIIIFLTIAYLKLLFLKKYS
Assay: In vivo microdialysis pharmacokinetics of LVFX with BCRP inhibitor Ko143
Settings: brain ECF (hippocampal microdialysate, unbound), intravenous, with Ko143 15 mg/kg i.p., 30 min before LVFX, brain ECF, Ko143 group, Ko143 15 mg/kg i.p. + LVFX 50 mg/kg, mean ± SD, N=5
measurement.name: half-life
Give the figure together with its unit, number first.

## Input Jot down half-life (Breast cancer resistance protein (BCRP) (Rattus norvegicus, UniProt Q80W57)) of `C[C@H]1COc2c(N3CCN(C)CC3)c(F)cc3c(=O)c(C(=O)O)cn1c23` .
## Output 44.4 min

---

Experiment: In vivo microdialysis pharmacokinetics of LVFX without transporter inhibitors
Set-up: species or system rat
Details: rat, hippocampal brain ECF (microdialysate, unbound), iv, 50 mg/kg, hippocampal brain ECF; control group, vehicle + LVFX 50 mg/kg tail vein; mean ± SD, N=12
measurement.name: MRT (h)
The answer is to be given in h; state only the numeric part.

## Input Supply recorded MRT for `C[C@H]1COc2c(N3CCN(C)CC3)c(F)cc3c(=O)c(C(=O)O)cn1c23` here.
## Output 1.35

---

Test: In vivo microdialysis pharmacokinetics of LVFX without transporter inhibitors
Design: species or system rat
Settings: rat, CSF, iv, 50 mg/kg, CSF; Group 1: vehicle solution of Tariquidar/Ko143 + LVFX 50 mg/kg; mean ± SD, n=3
measurement.name: half-life (min)
The answer is to be given in min; state only the numeric part.

## Input Supply recorded half-life for `C[C@H]1COc2c(N3CCN(C)CC3)c(F)cc3c(=O)c(C(=O)O)cn1c23` here.
## Output 38

---

Assay: In vivo microdialysis pharmacokinetics of LVFX without transporter inhibitors
Design: species or system rat
Conditions: rat, blood, iv, 50 mg/kg, blood; control group, vehicle + LVFX 50 mg/kg tail vein; mean ± SD, N=12
measurement.name: MRT
Give the figure together with its unit, number first.

## Input Supply recorded MRT for C[C@H]1COc2c(N3CCN(C)CC3)c(F)cc3c(=O)c(C(=O)O)cn1c23 [LVFX, Levofloxacin] here.
## Output 1.22 h

---

Test: In vivo microdialysis pharmacokinetics of LVFX without transporter inhibitors
Parameters: species or system rat
Conditions: rat, lateral ventricle CSF (microdialysate, unbound), iv, 50 mg/kg, lateral ventricle CSF; control group, vehicle + LVFX 50 mg/kg tail vein; mean ± SD, N=12; read-out: AUC0–180 (converted)
Method: On the day of surgery, rats were anesthetized using inhaled isoflurane via a facemask. The rats were placed in a stereotaxic frame (Gene&I), and the body temperature was maintained with a homoeothermic blanket set at 37°C. A midline incision was made to expose the skull. […]
measurement.name: AUC(0-t) (ng·h/mL)
The answer is to be given in ng·h/mL; state only the numeric part.

## Input Supply recorded AUC(0-t) for C[C@H]1COc2c(N3CCN(C)CC3)c(F)cc3c(=O)c(C(=O)O)cn1c23 [LVFX, Levofloxacin] here.
## Output 4190

---

Assay: In vivo microdialysis pharmacokinetics of LVFX without transporter inhibitors
Parameters: species or system rat
Details: rat, CSF (lateral ventricle microdialysate), iv, 50 mg/kg, CSF; Group 2: 1.25% NaHCO3 solution + LVFX 50 mg/kg; mean ± SD, n=3
measurement.name: Cmax (ng/mL)
The answer is to be given in ng/mL; state only the numeric part.

## Input Supply recorded Cmax for `C[C@H]1COc2c(N3CCN(C)CC3)c(F)cc3c(=O)c(C(=O)O)cn1c23` here.
## Output 3860

---

Tested on: Breast cancer resistance protein (BCRP)
Construct: from tissue; host or cells: living rat (blood-brain barrier, choroid plexus)
Test: In vivo microdialysis pharmacokinetics of LVFX with BCRP inhibitor Ko143
Settings: rat, CSF / blood (unbound, microdialysate), intravenous, with Ko143 15 mg/kg i.p., 30 min before LVFX; AUCu,CSF/AUCu,blood; Ko143 group, Ko143 15 mg/kg i.p. + LVFX 50 mg/kg; N=5; read-out: K p,uu,CSF
measurement.name: Kp
# answer = number (no unit)

## Input Jot down Kp (Breast cancer resistance protein (BCRP)) of `C[C@H]1COc2c(N3CCN(C)CC3)c(F)cc3c(=O)c(C(=O)O)cn1c23` .
## Output 0.424
